test system: Neuron; test: Neuroprotective activity against degeneration of rat DA neurons assessed as […] immunopositive neurons at 10 nM by immunofluorescence staining relative to control; type: functional
I'd be grateful if you could share measured Activity for these entries.
Numbers only, in %.

Here's what some known entries look like.
• CCCCCCCCCCCCCCCNCCc1c[nH]c2ccccc12 = 106
• CCCCC/C=C\C/C=C\CCCCCCCC(=O)NCCc1c[nH]c2ccccc12 = 111.4
• CCCCCCCCCCCCCCCCCC(=O)NCCc1c[nH]c2ccccc12 = 110
• CCCCCCCCCCCCCCCCCNCCc1c[nH]c2ccccc12 = 110.6
• CCCCCCCCCCCCCCCCCCCCCCCNCCc1c[nH]c2ccccc12 = 129.6

Turning to the following compound.
// query Form entry - test system: Neuron; read-out: Activity; compound: "CCCCC/C=C\C/C=C\CCCCCCCCNCCc1c[nH]c2ccccc12"
// result 137.5

Values were extracted from ChEMBL document CHEMBL1177677.
